Test system: unfractionated heparin (UFH)
Experiment: aPTT clotting assay, UFH 0.2 U/mL in plasma (Example 7)
Type: biochemical
Conditions: UFH 0.2 U/mL in plasma
Task for the reader: assign each of the following compounds its reported UFH (aPTT) EC50.
Give bare numbers, in µg/mL.

- N=C(N)NCCC[C@@H](N)C(=O)Nc1ccc(OCCNC(=N)N)c(C(=O)N[C@H](CCCNC(=N)N)C(=O)Nc2ccc(OCCNC(=N)N)c(C(=O)N[C@H](CCCNC(=N)N)C(=O)Nc3ccc(OCCNC(=N)N)c(C(N)=O)c3)c2)c1: 5.35

Problem: Which UFH (aPTT) EC50 is listed for COc1ccc(NC(=O)[C@H](CCCCN)NC(=O)c2cc(NC(=O)[C@H](CCCCN)NC(=O)c3cc(NC(=O)[C@H](CCCCN)NC(=O)c4cc(NC(=O)[C@@H](N)CCCCN)ccc4OC)ccc3OC)ccc2OC)cc1C(N)=O [Compound 8] ?
Solution: 2.26

====

Tested on: isolated human erythrocytes
Test: cells
Format: cell-based
Details: Homo sapiens, Erythrocyte, 1 h, human RBC, 1 hour at 37° C.; read-out: Hemolysis EC50
Starred links: 1 amine or outer side, 2 acyl side, 3 side chain; linkers in the order of their positions; H or OH if unused. Non-standard residues stand in square brackets, D forms with d. Residues, ends and D or L forms follow the SMILES beside them. *: point of attachment. NH(3-CONH2-4-OMe-phenyl) = COc1ccc(N*)cc1C(N)=O; 3Abz(6-OMe) = COc1ccc(N[*:1])cc1C(=O)[*:2]
Task for the reader: assign each of the following molecules its reported EC50.

// worked examples, EC50 included
* COc1ccc(NC(=O)[C@@H](CCCNC(=N)N)NC(=O)c2cc(NC(=O)[C@@H](CCCNC(=N)N)NC(=O)c3cc(NC(=O)[C@@H](CCCNC(=N)N)NC(=O)c4cc(NC(=O)[C@H](N)Cc5c[nH]c6ccccc56)ccc4OC)ccc3OC)ccc2OC)cc1C(=O)N[C@H](Cc1c[nH]c2ccccc12)C(=O)O [Compound 331] | ~100 µg/mL
* COc1cc(OC)c(C(=O)N[C@H]2CC[C@H](NC(=O)c3cc(C(=O)N[C@H]4CC[C@H](NC(=O)c5cc(C(=O)NCCN)c(OC)cc5OC)CC4)c(OC)cc3OC)CC2)cc1C(=O)NCCN [Compound 346] | > 1000 µg/mL

Look up EC50 for the entries below, preserving their order.
1. COC(=O)c1ccc(C(=O)N[C@@H](CCCCN)C(=O)Nc2ccc(OC)c(C(=O)N[C@@H](CCCCN)C(=O)Nc3ccc(OC)c(C(=O)N[C@@H](CCCCN)C(=O)Nc4ccc(OC)c(C(=O)N[C@@H](CCCCN)C(=O)Nc5ccc(OC)c(C(N)=O)c5)c4)c3)c2)cc1 [Compound 359]
2. COc1ccc(NC(=O)[C@H](CCCCN)NC(=O)c2cc(NC(=O)[C@H](CCCCN)NC(=O)c3cc(NC(=O)[C@H](CCCCN)NC(=O)c4cc(NC(=O)[C@H](CCCCN)NC(=O)[C@@H](N)Cc5ccccc5)ccc4OC)ccc3OC)ccc2OC)cc1C(N)=O [Compound 357] (H-FK[3Abz(6-OMe)]K[3Abz(6-OMe)]K[3Abz(6-OMe)]K-{NH(3-CONH2-4-OMe-phenyl)})

Solution:
["> 1000 µg/mL", "> 1000 µg/mL"]

Look up EC50 for the entries below, preserving their order.
1. COc1ccc(NC(=O)[C@@H](CCCNC(N)=O)NC(=O)c2cc(NC(=O)[C@@H](CCCNC(N)=O)NC(=O)c3cc(NC(=O)[C@@H](CCCNC(=N)N)NC(=O)c4cc(NC(C)=O)ccc4OC)ccc3OC)ccc2OCC(=O)O)cc1C(=O)N[C@H](Cc1c[nH]c2ccccc12)C(N)=O [Compound 333]
2. COc1cc(OC)c(C(=O)N[C@H]2CC[C@@H](NC(=O)c3cc(C(=O)N[C@H]4CC[C@@H](NC(=O)c5cc(C(=O)NCCN)c(OC)cc5OC)CC4)c(OC)cc3OC)CC2)cc1C(=O)NCCN [Compound 381]
3. COc1ccc(NC(=O)[C@@H](CCCNC(=N)N)NC(=O)c2cc(NC(=O)[C@@H](CCCNC(=N)N)NC(=O)c3cc(NC(=O)[C@@H](CCCNC(=N)N)NC(=O)c4cc(NC(C)=O)ccc4OC)ccc3OC)ccc2OC)cc1C(=O)N[C@H](Cc1c[nH]c2ccccc12)C(=O)O [Compound 304]

Solution:
1. 1000 µg/mL
2. 22.4 µg/mL
3. ~500 µg/mL

====

Test system: UFH
Test: FXa amidolytic assay (Example 10), UFH
Settings: read-out: Heparin FXa uM EC50; UFH 0.03 units/mL; human antithrombin, bovine Factor Xa
result.type: EC50

// worked examples, EC50 included
• COc1cc(OC)c(C(=O)N[C@H]2CC[C@H](NC(=O)c3cc(C(=O)N[C@H]4CC[C@H](NC(=O)c5cc(C(=O)NCCN)c(OC)cc5OC)CC4)c(OC)cc3OC)CC2)cc1C(=O)NCCN = 0.772 µM
• COc1ccc(NC(=O)[C@@H](CCCNC(=N)N)NC(=O)c2cc(NC(=O)[C@@H](CCCNC(N)=O)NC(=O)c3cc(NC(=O)[C@@H](CCCNC(N)=O)NC(=O)c4cc(NC(=O)[C@H](N)CCCNC(N)=O)ccc4OC)ccc3OC)ccc2OC)cc1C(N)=O = 12.5 µM
• COc1cc(OC)c(C(=O)N[C@H]2CC[C@H](NC(=O)c3cc(C(=O)N[C@H]4CC[C@H](N=C(N(C)C)N(C)C)CC4)c(OC)cc3OC)CC2)cc1C(N)=O = > 10 µM

Problem: # returns recorded EC50 (system: UFH) for COc1ccc(NC(=O)[C@@H](CCCNC(N)=O)NC(=O)c2cc(NC(=O)[C@@H](CCCNC(N)=O)NC(=O)c3cc(NC(=O)[C@@H](CCCNC(N)=O)NC(=O)c4cc(NC(=O)[C@H](N)CCCNC(=N)N)ccc4OC)ccc3OC)ccc2OC)cc1C(N)=O
Solution: > 10 µM

====

Test system: unfractionated heparin (UFH)
Test: aPTT clotting assay, UFH 0.2 U/mL in plasma (Example 7)
Assay type: biochemical
Conditions: UFH 0.2 U/mL in plasma
result.type: UFH (aPTT) EC50

* COc1cc(OC)c(C(=O)Nc2cc(C(F)(F)F)cc(NC(=O)CCCCNC(=N)N)c2SCCN)cc1C(=O)Nc1cc(C(F)(F)F)cc(NC(=O)CCCCNC(=N)N)c1SCCN | inactive
* COc1c(NC(=O)[C@@H](CCCCN)NC(=O)c2cccc(NC(=O)[C@@H](CCCCN)NC(=O)c3cccc(NC(=O)[C@@H](CCCCN)NC(=O)c4cccc(NC(=O)[C@H](N)CCCCN)c4OC)c3OC)c2OC)cccc1C(N)=O | inactive
* CN(C)CCNC(=O)c1cc(C(=O)N[C@H]2CC[C@H](NC(=O)c3cc(C(=O)NCCN(C)C)c(OCCCCCN)cc3OCCCCCN)CC2)c(OCCCCCN)cc1OCCCCCN | 19.76 µg/mL
* COc1cc(OC)c(C(=O)N[C@H]2CC[C@@H](NC(=O)c3cc(C(=O)NCCN(C)C)c(OCCCCCNC(=N)N)cc3OCCCCCNC(=N)N)CC2)cc1C(=O)N[C@H]1CC[C@@H](NC(=O)c2cc(C(=O)NCCN(C)C)c(OCCCCCNC(=N)N)cc2OCCCCCNC(=N)N)CC1 | >4 µg/mL

====

Experiment: Cytotoxicity colorimetric assay, HepG2
Assay type: cell-based, human
Settings: human, HepG2 cells, one hour in serum-free media
Task for the reader: assign each of the following compounds its reported EC50 at 1 h.
Answers are plain numbers, in µg/mL.

- COc1cc(OC)c(C(=O)N[C@H]2CC[C@@H](NC(=O)c3ccc(OCCCCCN)cc3OCCCCCN)CC2)cc1C(=O)N[C@H]1CC[C@@H](NC(=O)c2ccc(OCCCCCN)cc2OCCCCCN)CC1 [Compound 369]: 280
- COc1cc(OC)c(C(=O)N[C@H]2CC[C@H](NC(=O)c3cccc(C(=O)N[C@H]4CC[C@H](NC(=O)c5cc(C(=O)NCCN)c(OC)cc5OC)CC4)n3)CC2)cc1C(=O)NCCN [Compound 397]: 616
- COc1ccc(NC(=O)[C@H](CCCCN)NC(=O)c2cc(NC(=O)[C@H](CCCCN)NC(=O)c3cc(NC(=O)[C@H](CCCCN)NC(=O)c4cc(NC(=O)[C@@H](N)Cc5c[nH]c6ccccc56)ccc4OC)ccc3OC)ccc2OC)cc1C(N)=O [Compound 246]: 60
- COc1ccc(NC(=O)[C@H](CCCNC(=N)N)NC(=O)c2cc(NC(=O)[C@H](CCCNC(=N)N)NC(=O)c3cc(NC(=O)[C@H](CCCNC(=N)N)NC(=O)c4cc(NC(=O)[C@@H](N)CCCNC(=N)N)ccc4OC)ccc3OC)ccc2OC)cc1C(=O)N[C@@H](Cc1c[nH]c2ccccc12)C(=O)O [Compound 309]: 1000
- COc1ccc(NC(=O)[C@H](CCCNC(=N)N)NC(=O)c2cc(NC(=O)[C@H](CCCNC(=N)N)NC(=O)c3cc(NC(=O)[C@H](CCCNC(=N)N)NC(=O)c4cc(NC(=O)[C@@H](N)CCCNC(=N)N)ccc4OC)ccc3OC)ccc2OCC(=O)O)cc1C(N)=O [Compound 287]: 1000

Problem: Which EC50 at 1 h is listed for COc1ccc(NC(=O)[C@@H](CCCNC(=N)N)NC(=O)c2cc(NC(=O)[C@@H](CCCNC(=N)N)NC(=O)c3cc(NC(=O)[C@@H](CCCNC(=N)N)NC(=O)c4cc(NC(=O)[C@H](N)CCCNC(=N)N)ccc4OCC(=O)O)ccc3OC)ccc2OC)cc1C(N)=O [Compound 283] ?
Solution: 1000
